tested on: SR leukemia; assay: NCI tumour cell line growth inhibition, 48 h; in the data active = GI50 below about 0.43 µM; inactive = the rest
Outcomes: Y for active, N for inactive

[
  {
    "compound": "Cc1cc(S(N)(=O)=O)c(S/C(=N\\Nc2ccc([N+](=O)[O-])cc2)c2ccc3ccccc3c2)cc1Cl",
    "label value": "N"
  },
  {
    "compound": "CCCCCSC1C2C(=O)C(Br)=CC13CCNc1c(O)c4c5c(c13)=[N+]2CCC=5C=N4 (configuration not stated)",
    "label value": "N"
  },
  {
    "compound": "CSc1nc(N)c2c(n1)NC(c1ccccc1)C1CCc3ccccc3C1=N2 (configuration not stated)",
    "label value": "N"
  },
  {
    "compound": "Oc1c(CNCCNCc2cc(Cl)cc(Cc3ccccc3)c2O)cc(Cl)cc1Cc1ccccc1",
    "label value": "Y"
  },
  {
    "compound": "COc1cc(C2C3=C(COC3=O)Nc3cc4c(cc32)OCO4)cc2c1OCO2 (configuration not stated)",
    "label value": "Y"
  },
  {
    "compound": "O=C(COc1ccc(-c2nc3cc(Cl)c(Cl)cc3[nH]2)cc1)N=Nc1c(O)[nH]c2ccccc12",
    "label value": "N"
  },
  {
    "compound": "COc1ccc(Oc2cc(NCCC(F)(F)F)c3ncc(-c4ccc(C(=O)NC5CC5)c(C)c4)n3n2)c(F)c1F",
    "label value": "Y"
  }
]
